# target-or-system: Peroxisome proliferator-activated receptor gamma (Homo sapiens, UniProt P37231)
# Sequence (P37231 whole entry): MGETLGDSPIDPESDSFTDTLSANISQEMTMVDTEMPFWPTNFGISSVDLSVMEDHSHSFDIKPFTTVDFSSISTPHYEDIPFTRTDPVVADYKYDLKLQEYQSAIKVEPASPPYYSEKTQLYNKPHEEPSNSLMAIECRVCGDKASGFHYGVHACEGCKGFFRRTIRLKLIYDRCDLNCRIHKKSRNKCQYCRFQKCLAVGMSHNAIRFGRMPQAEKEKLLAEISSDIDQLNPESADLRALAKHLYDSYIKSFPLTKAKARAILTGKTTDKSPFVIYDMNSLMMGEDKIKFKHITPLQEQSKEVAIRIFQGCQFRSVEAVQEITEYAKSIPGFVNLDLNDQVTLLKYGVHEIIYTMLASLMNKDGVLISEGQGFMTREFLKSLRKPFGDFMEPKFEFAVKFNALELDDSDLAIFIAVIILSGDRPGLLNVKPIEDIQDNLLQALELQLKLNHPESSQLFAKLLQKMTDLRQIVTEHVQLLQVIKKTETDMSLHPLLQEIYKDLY
pEC50: −log10 of the molar value.
Output met for pEC50 not less than 6; output not met otherwise.

Some solved entries appear below for comparison.
molecule	class
CC/C(=N\OCCOc1ccc(CC2SC(=O)NC2=O)cc1)c1ccc(-c2ccccc2)cc1 (stereo not given)	not met
C/C(=N\OCCOc1ccc(CC2SC(=O)NC2=O)cc1)c1ccccn1 (stereo not given)	not met
C/C(=N\OCCOc1ccc(CC2SC(=O)NC2=O)cc1)c1ccccc1 (stereo not given)	not met
CCC/C(=N\OCCOc1ccc(CC2SC(=O)NC2=O)cc1)c1ccc(-c2ccccc2)cc1 (stereo not given)	not met
C/C(=N\OCCOc1ccc(CC2SC(=O)NC2=O)cc1)c1ccc(-c2ccccn2)cc1 (stereo not given)	met
C/C(=N\OCCOc1ccc(CC2SC(=O)NC2=O)cc1)c1cccc(-c2ccccc2)c1 (stereo not given)	met
C/C(=N\OCCOc1ccc(CC2SC(=O)NC2=O)cc1)c1ccc(-c2ccncc2)cc1 (stereo not given)	not met
C/C(=N\OCCOc1ccc(CC2SC(=O)NC2=O)cc1)c1ccncc1 (stereo not given)	not met

Continue with the molecule presented below.
Could you tell me if the measured pEC50 of C/C(=N\OCCOc1ccc(CC2SC(=O)NC2=O)cc1)c1ccccc1-c1ccccc1 (stereo not given) reaches 6 or more? not met

###

Reported EC50 values, Peroxisome proliferator-activated receptor gamma (Homo sapiens).
Give bare numbers, in nM.

Please give EC50 for each item listed below.
1. C/C(=N\OCCOc1ccc(CC2SC(=O)NC2=O)cc1)c1cccnc1 (stereo not given)
2. C/C(=N\OCCOc1ccc(CC2SC(=O)NC2=O)cc1)c1ccc(-c2ccccc2)cn1 (stereo not given)
3. C/C(=N\OCCOc1ccc(CC2SC(=O)NC2=O)cc1)c1ccc(-c2ccccc2)cc1 (stereo not given)

1: 2800; 2: 1100; 3: 400

Measured values drawn from ChEMBL document CHEMBL1133395 for this set.
